Target: Calcium/calmodulin-dependent protein kinase type II subunit alpha (Homo sapiens)
Sequence (Q9UQM7 whole entry): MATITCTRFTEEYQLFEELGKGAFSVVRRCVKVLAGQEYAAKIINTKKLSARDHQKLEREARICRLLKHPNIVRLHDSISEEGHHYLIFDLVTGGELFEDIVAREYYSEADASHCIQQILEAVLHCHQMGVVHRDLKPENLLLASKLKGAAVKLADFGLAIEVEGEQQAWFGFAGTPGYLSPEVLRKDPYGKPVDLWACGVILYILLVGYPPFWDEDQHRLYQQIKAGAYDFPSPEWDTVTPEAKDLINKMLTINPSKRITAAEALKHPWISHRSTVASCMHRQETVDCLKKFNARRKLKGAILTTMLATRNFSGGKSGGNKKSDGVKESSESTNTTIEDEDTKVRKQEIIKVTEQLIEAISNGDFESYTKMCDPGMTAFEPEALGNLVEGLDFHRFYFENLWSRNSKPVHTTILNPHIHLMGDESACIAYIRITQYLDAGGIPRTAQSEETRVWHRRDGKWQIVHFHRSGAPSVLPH
Assay: Inhibition of CamK2alpha
endpointLabel: pIC50
Answers are plain numbers, as −log10 of the molar value.

*Q* Supply recorded pIC50 for CNc1nccc(-c2ccc(C(=O)N[C@H](CN)Cc3ccc(Cl)cc3Cl)s2)n1 here.
*A* 5.10

* * *

Molecular target: RAC-gamma serine/threonine-protein kinase (Homo sapiens, UniProt Q9Y243)
Sequence (Q9Y243 whole entry): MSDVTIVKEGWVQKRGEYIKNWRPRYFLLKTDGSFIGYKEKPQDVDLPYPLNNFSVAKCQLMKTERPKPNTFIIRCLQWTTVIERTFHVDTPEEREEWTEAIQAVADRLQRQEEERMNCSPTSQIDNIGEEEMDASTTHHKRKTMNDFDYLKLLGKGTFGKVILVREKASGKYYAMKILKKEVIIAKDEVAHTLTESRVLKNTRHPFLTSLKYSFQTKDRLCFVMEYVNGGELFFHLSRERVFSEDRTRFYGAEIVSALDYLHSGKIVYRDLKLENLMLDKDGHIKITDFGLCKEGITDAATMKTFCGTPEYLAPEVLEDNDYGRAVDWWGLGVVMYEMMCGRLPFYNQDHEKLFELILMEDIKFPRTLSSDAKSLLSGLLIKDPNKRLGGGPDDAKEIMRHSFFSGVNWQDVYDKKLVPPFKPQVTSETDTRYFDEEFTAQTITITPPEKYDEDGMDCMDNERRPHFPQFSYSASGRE
Experiment: Inhibition of AKT3 in presence of 0.2 uM ATP
pIC50: −log10 of the molar value.
# binarize pIC50: threshold 6 inclusive, high side Fulfilled, low side Not fulfilled

Look over these answered cases.
* CNc1nccc(-c2ccc(C(=O)NCCCc3ccc(F)cc3)s2)n1 | Not fulfilled
* CNc1nccc(-c2ccc(C(=O)NCCc3ccncc3)s2)n1 | Not fulfilled
* CNc1nccc(-c2ccc(C(=O)N[C@@H](Cc3ccc(Cl)cc3Cl)CN(C)C)s2)n1 | Fulfilled
* CNc1nccc(-c2ccc(C(=O)NCCc3ccc(C)cc3)s2)n1 | Not fulfilled
* CNc1nccc(-c2ccc(C(=O)N[C@H](CCN)Cc3ccc(Cl)cc3Cl)s2)n1 | Fulfilled

*Q* Has CNc1nccc(-c2ccc(C(=O)Nc3ccc(F)cc3)s2)n1 a recorded pIC50 greater than or equal to 6?
*A* Not fulfilled

*Q* Has CNc1nccc(-c2ccc(NC(=O)OCc3ccc(F)cc3)s2)n1 a recorded pIC50 greater than or equal to 6?
*A* Not fulfilled

*Q* Has CNc1nccc(-c2ccc(NC(=O)NCc3ccc(Cl)cc3Cl)s2)n1 a recorded pIC50 greater than or equal to 6?
*A* Not fulfilled

*Q* Has CNc1nccc(-c2ccc(C(=O)NCCc3ccc(S(N)(=O)=O)cc3)s2)n1 a recorded pIC50 greater than or equal to 6?
*A* Not fulfilled
